Parameter: pIC50. Scope: all listed entries.
tested on: TGFβ/SMAD Signaling Pathway SBE reporter cell line; assay: TGFb reporter assay in HEK293 SBE-LUC reporter cells (luciferase); type: cell-based; details: Homo sapiens, key of the table says IC50, read-out: EC50 (the source's name)
pIC50: −log10 of the molar value.

Data request: Record request: pIC50 value, item `Cc1cccc(-c2nc(CNC(c3ccccc3)c3ccccc3)[nH]c2-c2ccc3ncnn3c2)n1`
Data returned: 8.00 to 10.00

====

// values below are reported pIC50
tested on: TGFβ/SMAD Signaling Pathway SBE reporter cell line; test: TGFb reporter assay in HEK293 SBE-LUC reporter cells (luciferase); type: cell-based; details: Homo sapiens, key of the table says IC50, read-out: EC50 (the source's name)
pIC50: −log10 of the molar value.

Cc1cccc(-c2nc(CNCc3cccc(Oc4cccnc4)c3)[nH]c2-c2ccc3ncnn3c2)n1: 7.00 to 8.00
Cc1cccc(-c2nc(CNCc3ccccc3C)[nH]c2-c2ccc3nccnc3c2)n1: 8.00 to 10.00
Cc1cccc(-c2nc(C3CCCNC3)[nH]c2-c2ccc3ncnn3c2)n1 (centres unmarked): 6.00 to 7.00
Cc1cccc(-c2nc(CNC3CCCC3)[nH]c2-c2ccc3ncnn3c2)n1: 7.00 to 8.00

Data request: Would you kindly share the measured pIC50 for `Cc1cccc(-c2nc(CNCCNc3ccccc3)[nH]c2-c2ccc3ncnn3c2)n1` ?
Data returned: 8.00 to 10.00

Data request: What does the data say about its pIC50? Entry: `Cc1cccc(-c2nc(CNCCc3ccccc3)[nH]c2-c2ccc3ncnn3c2)n1`
Data returned: 8.00 to 10.00

Data request: Requested field: pIC50. Item: `Cc1cccc(-c2nc(CNC34CC(C3)C4)[nH]c2-c2ccc3ncnn3c2)n1`
Data returned: 7.00 to 8.00

Data request: pIC50 for `COc1ccc(OC)c(CNCc2nc(-c3cccc(C)n3)c(-c3ccc4ncnn4c3)[nH]2)c1` ?
Data returned: 7.00 to 8.00

FYI, the data here is from patent US20210130473A1.
